tested on: SK-MEL-28 melanoma; test: NCI tumour cell line growth inhibition, 48 h
For each record, write down the corresponding TGI.

# lookup: CN1C(c2ccccc2)CC(=NOCc2ccccc2)CC1c1ccccc1 (centres undefined) on SK-MEL-28 melanoma, TGI = > 76.3 µM

# lookup: O=C(COc1ccc(OCC(=O)N2C(=O)CN(c3ccc(Cl)cc3)C2=S)cc1)N1C(=O)CN(c2ccc(Cl)cc2)C1=S on SK-MEL-28 melanoma, TGI = > 100 µM

# lookup: Cn1cc(C2=C(c3cn(C)c4cc(C(=O)O)ccc34)C(=O)NC2=O)c2ccccc21 on SK-MEL-28 melanoma, TGI = > 25 µM

# lookup: N#Cc1nc(-c2cccnc2)oc1N on SK-MEL-28 melanoma, TGI = > 100 µM

# lookup: O=C1C2=C(CCCC2)Nc2cccc3ncn1c23 on SK-MEL-28 melanoma, TGI = > 100 µM

# lookup: Oc1ccc(/C=C/c2ccc(O)cc2)cc1 on SK-MEL-28 melanoma, TGI = > 100 µM

# lookup: CCOP(=O)(/C=C/n1ccc(=O)[nH]c1=O)OCC on SK-MEL-28 melanoma, TGI = > 100 µM

# lookup: C=C(C)C[C@H](Sc1nc2ccccc2s1)[C@H](C)O on SK-MEL-28 melanoma, TGI = > 100 µM

# lookup: CC1(C)CC2=C(SC3C=CC=CC3N2)C(=O)C1C(=O)C(N)=O (centres undefined) on SK-MEL-28 melanoma, TGI = > 100 µM

# lookup: CCN(CC)CCn1c(N)c(-c2nc3ccccc3n2C)c2nc(C#N)c(C#N)nc21 on SK-MEL-28 melanoma, TGI = 3.02 µM

# lookup: O=C(O)C1(C(=O)O)CC1 on SK-MEL-28 melanoma, TGI = > 100 µM

# lookup: CNc1cc(N)ccc1C(=O)N1CCC[C@H]1CO on SK-MEL-28 melanoma, TGI = > 100 µM

# lookup: Cc1nc(C(N)=S)sc1C(=O)CC(=O)C(=O)Nc1c(C(C)C)cccc1C(C)C on SK-MEL-28 melanoma, TGI = > 100 µM

# lookup: CC1=C(C#N)C2C(=C(C)N1)C(N)=Nc1ccccc12 (centres undefined) on SK-MEL-28 melanoma, TGI = > 100 µM

# lookup: Fc1cc(-c2cc(-c3ccccc3)n[nH]2)c(Cl)cc1Cl on SK-MEL-28 melanoma, TGI = > 100 µM

# lookup: CNc1ccc(S(=O)Nc2ccc(OC)cc2)cc1 (centres undefined) on SK-MEL-28 melanoma, TGI = > 100 µM

# lookup: CN1CCN(Cc2ccc(NC(=O)c3nc4ccc5[nH]ncc5c4c4c3CCCC4)cc2C(F)(F)F)CC1 on SK-MEL-28 melanoma, TGI = 1.58 µM

# lookup: N#Cc1ccsc1Nc1ccccc1[N+](=O)[O-] on SK-MEL-28 melanoma, TGI = > 100 µM

# lookup: C#CC[N+](CCO)(CCO)CCCCCCCCCCCCCCCCCC on SK-MEL-28 melanoma, TGI = 30.6 µM

# lookup: C=C(C)[C@@H]1C/C=C(\COC(=O)[C@H](OC(C)=O)C(NC(=O)c2ccccc2)c2ccccc2)CC[C@H]2O[C@]2(C)CC/C=C(\C)CC1 (some centres undefined) on SK-MEL-28 melanoma, TGI = > 50 µM

# lookup: COC(=O)[C@@H]1CCCN1C(=O)[C@@H]1CCCN1C(=O)[C@H](Cc1ccccc1)NC(=S)Nc1cc(C(F)(F)F)cc(C(F)(F)F)c1 on SK-MEL-28 melanoma, TGI = > 100 µM

# lookup: COc1cc(Br)c(CC2NCCc3cc(OC)c(OC)cc32)cc1OC (centres undefined) on SK-MEL-28 melanoma, TGI = > 100 µM

# lookup: C=C1C(=O)O[C@H]2[C@H]1CC/C(COC(=O)NCc1[nH]nc3ccccc13)=C\CC[C@@]1(C)O[C@@H]21 on SK-MEL-28 melanoma, TGI = 3.7 µM

# lookup: CCC(CC)COC(=O)[C@H](C)N[P@](=O)(OC[C@H]1O[C@@](C#N)(c2ccc3c(N)ncnn23)[C@H](O)[C@@H]1O)Oc1ccccc1 on SK-MEL-28 melanoma, TGI = 11.8 µM

# lookup: c1ccc(C(c2ccccc2)c2ccncc2)cc1 on SK-MEL-28 melanoma, TGI = > 100 µM

# lookup: Cn1c([N+](=O)[O-])cnc1CN1CCN(CCO)CC1 on SK-MEL-28 melanoma, TGI = > 100 µM

# lookup: Cc1noc(NS(=O)(=O)c2ccc(NC(=O)c3ccc4nc5ccccc5c(Nc5ccc(S(=O)(=O)Nc6onc(C)c6C)cc5)c4c3)cc2)c1C on SK-MEL-28 melanoma, TGI = > 100 µM

# lookup: CCOC(=O)c1ccc(NC(=O)Nc2nccs2)cc1 on SK-MEL-28 melanoma, TGI = 25.8 µM

# lookup: Nc1ccc2nc3ccc(=O)cc-3n(-c3ccccc3)c2c1 on SK-MEL-28 melanoma, TGI = > 100 µM

# lookup: Cc1cc(O)c(C=NC(=S)C(N)=S)c(=O)o1 on SK-MEL-28 melanoma, TGI = > 100 µM

# lookup: CC(=O)OCC1OC(OC2CCCC[Si](c3ccccc3)(c3ccccc3)O2)C(OC(C)=O)C(OC(C)=O)C1OC(C)=O (centres undefined) on SK-MEL-28 melanoma, TGI = > 100 µM

# lookup: N#Cc1c(-c2ccccc2)n([O-])c2ccccc2[n+]1=O on SK-MEL-28 melanoma, TGI = > 100 µM

# lookup: O=CC(NC(=O)N(CCCl)N=O)C(O)C(O)C(O)CO (centres undefined) on SK-MEL-28 melanoma, TGI = > 1250 µM

# lookup: CSc1nc(-c2ccccc2)c(C#N)c(=O)[nH]1 on SK-MEL-28 melanoma, TGI = > 100 µM

# lookup: COc1ccc(C2CC(c3ccc4ccccc4c3O)=NN2)cc1OC (centres undefined) on SK-MEL-28 melanoma, TGI = > 100 µM

# lookup: COc1cccc(NC(=O)CC(=O)Nc2cccc(OC)c2)c1 on SK-MEL-28 melanoma, TGI = > 100 µM

# lookup: CS(=O)(=O)Nc1ccc(Nc2cc[nH]c3ccc4nccc4c23)cc1 on SK-MEL-28 melanoma, TGI = 32.2 µM

# lookup: Nc1ccccc1C(=O)CCc1c[nH]c2ccccc12 on SK-MEL-28 melanoma, TGI = > 100 µM

# lookup: O=C1Nc2ccccc2S/C1=C\c1ccc(C(F)(F)F)cc1 on SK-MEL-28 melanoma, TGI = > 100 µM

Source of measurements: PubChem BioAssay (NCI)
